Molecular target: M4 muscarinic receptor (Homo sapiens, UniProt P08173)
Construct: expressed in transfected cells; host or cells: CHO cells (M4-CHO, under puromycin, zeocin and blasticidin selection)
Sequence (P08173 whole entry): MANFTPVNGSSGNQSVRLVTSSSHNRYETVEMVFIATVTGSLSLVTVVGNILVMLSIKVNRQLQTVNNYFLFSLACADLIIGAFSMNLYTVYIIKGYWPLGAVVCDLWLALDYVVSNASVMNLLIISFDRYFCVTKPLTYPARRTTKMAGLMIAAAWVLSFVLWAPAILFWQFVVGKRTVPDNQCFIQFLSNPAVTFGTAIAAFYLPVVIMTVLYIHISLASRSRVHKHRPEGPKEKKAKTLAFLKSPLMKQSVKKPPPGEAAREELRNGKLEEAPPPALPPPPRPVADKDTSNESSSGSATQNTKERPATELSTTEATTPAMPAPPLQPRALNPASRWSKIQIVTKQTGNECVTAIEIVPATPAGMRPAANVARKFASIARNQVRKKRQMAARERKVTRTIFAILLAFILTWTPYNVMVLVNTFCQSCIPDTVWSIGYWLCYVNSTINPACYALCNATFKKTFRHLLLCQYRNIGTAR
Experiment: Functional mobilization of intracellular calcium (FLIPR, Fluo-3), M4-CHO cells
Type: cell-based
Conditions: compound nos. 1-454; 100% efficacy is the maximum response obtained with the Carbachol control; read-out: M4 Efficacy

| molecule | Emax |
| --- | --- |
| CCOC(=O)N1CCC(N2CCC3(CC2)CN(C(C)=O)c2ccc(C4=CCCC4)cc23)CC1 [compound 426] | < 55% |
| COCCOC(=O)N1C2CCC1CC(N1CCC3(CC1)CN(C(C)=O)c1ccc(F)cc13)C2 (stereo not shown) [compound 76] | 55 to 70% |
| CCOC(=O)N1C2CCC1CC(N1CCC3(CCc4ccccc43)CC1)C2 (stereo not shown) [compound 365] | < 55% |
| CCOC(=O)N1C2CCC1CC(CN1CCC3(CC1)CNc1ccc(F)cc13)C2 (stereo not shown) [compound 368] | < 55% |
| CC(=O)N1CC2(CCN(CC3CCN(C(=O)O[C@@H]4CCOC4)CC3)CC2)c2cc(C)ccc21 [compound 403] | < 55% |
| Clc1ccc2c(c1)C1(CCN(CC3CCOCC3)CC1)CO2 [compound 415] | < 55% |
| CC(=O)N[C@H]1CC2(CCN(CC3CCCCC3)CC2)c2ccccc21 [compound 184] | 55 to 70% |
| C=Cc1ccc2c(c1)C1(CCN(C3CCN(C(=O)OCC)CC3)CC1)CN2C(C)=O [compound 11] | < 55% |
| CC(=O)N1CC2(CCN(C3CCCCCC3)CC2)c2cc(F)ccc21 [compound 210] | < 55% |
| CCOC(=O)N1CCC(N2CCC3(CC2)CN(C(=O)C(C)(C)C)c2ccc(F)cc23)CC1 [compound 282] | 55 to 70% |
| CCC1CCC(N2CCC3(CC2)CN(C(C)=O)c2ccc(F)cc23)CC1 (stereo not shown) [compound 27] | 55 to 70% |
| CC(=O)NC1CC2(CCN(C3CC4CCC(C4)C3)CC2)c2ccccc21 (stereo not shown) [compound 8] | 55 to 70% |
| COCCOC(=O)N1C2CCC1CC(N1CCC3(CC1)CN(C(=O)OC1CCC1)c1ccc(F)cc13)C2 (stereo not shown) [compound 106] | < 55% |
| CCNC(=O)N1CC2(CCN(C3CC4CCC(C3)N4C(=O)OCC)CC2)c2cc(F)ccc21 (stereo not shown) [compound 255] | < 55% |
| CC(C)COC(=O)N1C2CCC1CC(N1CCC3(CC1)COc1ccc(F)cc13)C2 (stereo not shown) [compound 160] | > 70% |
| O=C(O[C@@H]1CCOC1)N1C2CCC1CC(N1CCC3(CCc4ccccc43)CC1)C2 (stereo partly shown) [compound 43] | > 70% |
| Clc1ccc2c(c1)C1(CCN(C3CCOCC3)CC1)CN2 [compound 37] | > 70% |
| CCOC(=O)N1CCC(N2CCC3(CC2)CN(C(C)=O)c2ccc(C4CC4)cc23)CC1 [compound 245] | > 70% |
| Cc1ccc2c(c1)C1(CCN(CC3CC4CCC3C4)CC1)CN2C(=O)OC(C)(C)C (stereo not shown) [compound 382] | 55 to 70% |
| CC(=O)N1CC2(CCN(C3CCOCC3)CC2)c2cc(F)ccc21 [compound 268] | < 55% |
| CCCc1ccc2c(c1)C1(CCN(C3CCN(C(=O)OCC)CC3)CC1)CN2C(C)=O [compound 74] | 55 to 70% |
| CC(=O)N1CC2(CCN(CC3CCCOC3)CC2)c2cc(F)ccc21 (stereo not shown) [compound 75] | 55 to 70% |
| CCOC(=O)N1CCC(N2CCC3(CC2)C(=O)Nc2ccccc23)CC1 [compound 191] | 55 to 70% |
| CS(=O)(=O)N1CC2(CCN(C3CC4CCC(C3)N4C(=O)O[C@H]3CCOC3)CC2)c2cc(F)ccc21 (stereo partly shown) [compound 388] | < 55% |
| CC(=O)N1CC2(CCN(C3CCCN(C(=O)OC(C)C)CC3)CC2)c2cc(F)ccc21 (stereo not shown) [compound 395] | < 55% |
| CCOC(=O)N[C@H]1CC2(CCN(C[C@H]3C[C@H]4CC[C@H]3C4)CC2)c2ccccc21 [compound 326] | < 55% |
| COCCOC(=O)N1CCC(N2CCC3(CC2)CN(C(=O)N(C)C)c2ccc(F)cc23)CC1 [compound 265] | < 55% |
| CC(=O)N1CC2(CCN(C3CCN(C(=O)O[C@H]4CCOC4)CC3)CC2)c2cc(F)ccc21 [compound 418] | < 55% |
| Fc1ccc2c(c1)C1(CCN(C3CC4CCC3C4)CC1)CN2 (stereo not shown) [compound 416] | < 55% |
| CC(=O)N[C@H]1CC2(CCN(C3C4CC5CC(C4)CC3C5)CC2)c2ccccc21 (stereo partly shown) [compound 4] | < 55% |
| Fc1ccc2c(c1)C1(CCN(CC3CC4C=CC3C4)CC1)CN2 (stereo not shown) [compound 183] | 55 to 70% |
| c1ccc2c(c1)NCC21CCN(C2CC3CCC(C3)C2)CC1 (stereo not shown) [compound 420] | < 55% |
| CC(C)OC(=O)N1C2CCC1CC(N1CCC3(CCc4ccccc43)CC1)C2 (stereo not shown) [compound 285] | < 55% |
| O=C1Nc2ccccc2C12CCN(C1CC3CCC1C3)CC2 (stereo not shown) [compound 259] | < 55% |
